- PROTOCOL: Antioxidant activity assay (ABTS working solution, 734 nm)
pIC50: −log10 of the molar value.
Property: pIC50; scope: individual molecules
MEASURE NAME: pIC50

# MOLECULE, VALUE MEASURED
records = [
    ("CC(O)CCCC1Cc2c(ccc(O)c2O)C(=O)O1 (stereo not shown)", 3.96),
    ("COc1c(O)ccc2c1C(=O)OC(CCCO)C2 (stereo not shown)", 4.00),
    ("CC(=O)CCC[C@@H]1Cc2ccc(O)c(O)c2C(=O)O1", 3.85),
    ("CC(O)CCCC1Cc2c(O)ccc(O)c2C(=O)O1 (stereo not shown)", 3.92),
]
